Where do these numbers come from? They come from ChEMBL document CHEMBL3046673.

tested on: Echinochloa crus-galli; experiment: Herbicidal activity against Echinochloa crus-galli (barnyard grass) assessed as inhibition of root growth at 100 mg/L using pre-emergence exposure protocol after 5 days; type: functional; details: 120 h, read-out: GI
Assign inhibition of growth at 100 µg/mL to each entry below.
Give bare numbers, in %.

These recorded examples may help you get a feel for the data.
CCCCNC(=O)N1CCC(c2nc(-c3c(-c4ccccc4F)noc3C)cs2)CC1 :: 90.3
Cc1onc(-c2ccccc2F)c1-c1csc(C2CCN(C(=O)NC(C)C)CC2)n1 :: 73.9
Cc1onc(-c2ccccc2F)c1-c1csc(C2CCN(C(=S)Nc3ccccc3)CC2)n1 :: 83.9
Cc1onc(-c2ccccc2F)c1-c1csc(C2CCN(C(=O)Nc3ccc(F)cc3)CC2)n1 :: 80.6
Cc1onc(-c2ccccc2)c1-c1csc(C2CCN(C(=O)Nc3ccc(F)cc3)CC2)n1 :: 87.1

Could I get inhibition of growth at 100 µg/mL for every one of these entries?
1. COc1ccc(-c2noc(C)c2-c2csc(C3CCN(C(=O)Nc4ccccc4)CC3)n2)cc1
2. Cc1onc(-c2ccccc2)c1-c1csc(C2CCN(C(=O)Nc3ccccc3)CC2)n1
3. Cc1onc(-c2ccc(F)cc2)c1-c1csc(C2CCN(C(=O)Nc3ccccc3)CC2)n1
4. Cc1onc(-c2ccccc2F)c1-c1csc(C2CCN(C(=O)Nc3ccccc3)CC2)n1
5. Cc1onc(-c2ccc(F)cc2)c1-c1csc(C2CCN(C(=O)Nc3ccc(F)cc3)CC2)n1
6. CCCCNC(=O)N1CCC(c2nc(-c3c(-c4ccc(F)cc4)noc3C)cs2)CC1

Reply:
[76.1, 78.3, 95.5, 84.8, 74.2, 87.1]

Could I get inhibition of growth at 100 µg/mL for every one of these entries?
1. Cc1onc(-c2ccc(F)cc2)c1-c1csc(C2CCN(C(=O)NC(C)C)CC2)n1
2. Cc1onc(-c2ccc(F)cc2)c1-c1csc(C2CCN(C(=S)Nc3ccccc3)CC2)n1
3. Cc1onc(-c2ccc(Cl)cc2Cl)c1-c1csc(C2CCN(C(=O)Nc3ccc(F)cc3)CC2)n1

Reply:
1: 83.9; 2: 87.1; 3: 83.8

Task item: Any idea what its inhibition of growth at 100 µg/mL is? The compound is "COc1ccc(-c2noc(C)c2-c2csc(C3CCN(C(=O)Nc4ccc(F)cc4)CC3)n2)cc1"
Reply: 86.4

====

system: Echinochloa crus-galli; experiment: Herbicidal activity against Echinochloa crus-galli (barnyard grass) assessed as inhibition of root growth at 10 mg/L using pre-emergence exposure protocol after 5 days; type: functional; conditions: 120 h, read-out: GI
Assign inhibition of growth at 10 µg/mL to each entry below.
Numbers only, in %.

These recorded examples may help you get a feel for the data.
Cc1onc(-c2ccccc2F)c1-c1csc(C2CCN(C(=O)NC(C)C)CC2)n1 :: 56.5
Cc1onc(-c2ccc(F)cc2)c1-c1csc(C2CCN(C(=S)Nc3ccccc3)CC2)n1 :: 48.4
Cc1onc(-c2ccc(F)cc2)c1-c1csc(C2CCN(C(=O)NC(C)C)CC2)n1 :: 54.8
Cc1onc(-c2ccc(F)cc2)c1-c1csc(C2CCN(C(=O)Nc3ccccc3)CC2)n1 :: 65.9
Cc1onc(-c2ccc(Cl)cc2Cl)c1-c1csc(C2CCN(C(=O)Nc3ccc(F)cc3)CC2)n1 :: 32.3

Task item: Any idea what its inhibition of growth at 10 µg/mL is? The compound is "Cc1onc(-c2ccccc2)c1-c1csc(C2CCN(C(=O)Nc3ccccc3)CC2)n1"
Reply: 52

====

system: Brassica napus; experiment: Herbicidal activity against Brassica napus (oilseed rape) assessed as inhibition of root growth at 100 mg/L using pre-emergence exposure protocol after 5 days; assay type: functional; conditions: 120 h, read-out: GI
Assign inhibition of growth at 100 µg/mL to each entry below.
The reply must contain the numeric value and, after it, the unit.

Cc1onc(-c2ccc(F)cc2)c1-c1csc(C2CCN(C(=S)Nc3ccccc3)CC2)n1 :: 90.1%
Cc1onc(-c2ccc(Cl)cc2Cl)c1-c1csc(C2CCN(C(=O)Nc3ccc(F)cc3)CC2)n1 :: 90.3%

// next entry
Task item: Any idea what its inhibition of growth at 100 µg/mL is? The molecule is "Cc1onc(-c2ccccc2F)c1-c1csc(C2CCN(C(=O)Nc3ccccc3)CC2)n1"
Reply: 91.2%

====

test system: Brassica napus; experiment: Herbicidal activity against Brassica napus (oilseed rape) assessed as inhibition of root growth at 100 mg/L using pre-emergence exposure protocol after 5 days; type: functional; settings: 120 h, read-out: GI
measurementLabel: inhibition of growth at 100 µg/mL

These recorded examples may help you get a feel for the data.
Cc1onc(-c2ccccc2)c1-c1csc(C2CCN(C(=O)Nc3ccc(F)cc3)CC2)n1 :: 85.4%
Cc1onc(-c2ccccc2)c1-c1csc(C2CCN(C(=O)Nc3ccccc3)CC2)n1 :: 80.4%

Task item: Any idea what its inhibition of growth at 100 µg/mL is? The compound is "Cc1onc(-c2ccc(F)cc2)c1-c1csc(C2CCN(C(=O)NC(C)C)CC2)n1"
Reply: 87.2%
